- assay-target: GR (Homo sapiens)
- Construct: expressed in transfected cells; host or cells: CHO-K1
- Sequence (P04150 whole entry): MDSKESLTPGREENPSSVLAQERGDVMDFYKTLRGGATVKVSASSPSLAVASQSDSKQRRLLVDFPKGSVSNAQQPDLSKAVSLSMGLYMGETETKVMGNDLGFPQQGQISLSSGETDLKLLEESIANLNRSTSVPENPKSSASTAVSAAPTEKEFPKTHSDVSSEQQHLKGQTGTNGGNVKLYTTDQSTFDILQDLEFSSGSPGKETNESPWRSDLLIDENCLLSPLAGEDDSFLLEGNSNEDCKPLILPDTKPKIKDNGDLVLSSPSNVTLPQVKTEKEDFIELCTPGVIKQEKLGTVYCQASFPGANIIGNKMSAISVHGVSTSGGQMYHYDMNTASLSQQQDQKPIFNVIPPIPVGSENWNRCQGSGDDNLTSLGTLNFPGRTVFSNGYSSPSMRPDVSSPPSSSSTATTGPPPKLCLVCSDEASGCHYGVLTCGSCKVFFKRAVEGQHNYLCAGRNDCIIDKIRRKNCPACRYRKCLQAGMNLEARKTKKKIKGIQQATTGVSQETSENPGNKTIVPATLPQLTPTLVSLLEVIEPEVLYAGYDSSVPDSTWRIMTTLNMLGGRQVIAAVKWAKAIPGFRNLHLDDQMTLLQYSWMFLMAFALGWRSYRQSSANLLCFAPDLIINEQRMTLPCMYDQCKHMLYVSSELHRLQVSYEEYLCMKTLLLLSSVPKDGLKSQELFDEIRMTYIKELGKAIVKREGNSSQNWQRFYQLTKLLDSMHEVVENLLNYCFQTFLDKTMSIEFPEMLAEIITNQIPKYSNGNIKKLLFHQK
- assay-name: In Vitro GR Luciferase Reporter Assay (antagonist mode, CHO-K1-GR-MMTV-Luc reporter cells)
- Format: cell-based
- experimental-setup: antagonist assay with 10 nM Dexamethasone, 18-24 hours
measured-metric: IC50

CN(C(=O)c1ccccc1)[C@H]1CCC2=Cc3c(cnn3-c3ccc(F)cc3)C[C@]2(C(=O)c2ccccn2)C1; ≤ 100 nM
Cc1ccnc(C(=O)[C@]23Cc4cnn(-c5ccc(F)cc5)c4C=C2CC[C@H](S(=O)(=O)c2ccc(F)c(F)c2)C3)c1; ≤ 100 nM

Attention now shifts to the item below.
Prompt line: What value of IC50 has been reported for the following compound? CN([C@H]1CCC2=Cc3c(cnn3-c3ccc(F)cc3)C[C@]2(C(=O)c2cc(C(F)(F)F)ccn2)C1)S(=O)(=O)C1CCOCC1
Response line: ≤ 100 nM

* * *

- assay-target: CYP2C8 (Homo sapiens, UniProt P10632)
- Construct: Pooled human microsomes were obtained from Sekisui XenoTech, KS; tissue Sekisui XenoTech, KS; host or cells: pooled human liver microsomes
- Sequence (P10632 1-490): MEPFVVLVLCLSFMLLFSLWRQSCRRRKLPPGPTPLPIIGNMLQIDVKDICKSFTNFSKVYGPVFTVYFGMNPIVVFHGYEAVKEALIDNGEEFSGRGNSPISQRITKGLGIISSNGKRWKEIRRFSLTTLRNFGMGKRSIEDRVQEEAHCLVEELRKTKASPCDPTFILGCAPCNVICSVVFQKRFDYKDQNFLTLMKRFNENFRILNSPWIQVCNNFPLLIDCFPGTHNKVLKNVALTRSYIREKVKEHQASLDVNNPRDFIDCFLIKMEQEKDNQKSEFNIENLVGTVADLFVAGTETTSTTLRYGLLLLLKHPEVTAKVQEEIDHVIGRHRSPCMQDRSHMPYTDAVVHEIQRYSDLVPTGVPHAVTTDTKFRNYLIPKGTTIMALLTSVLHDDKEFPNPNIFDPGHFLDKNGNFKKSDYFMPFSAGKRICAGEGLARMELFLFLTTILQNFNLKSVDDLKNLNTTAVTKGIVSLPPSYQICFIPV
- assay-name: CYP Inhibition Assay (CYP2C8, human liver microsomes, paclitaxel substrate)
- Format: in vitro ADME
- experimental-setup: pH 7.4; pooled human liver microsomes 0.1 mg/mL, probe substrate paclitaxel
Recorded inhibition at 5 min by entry

CCN([C@H]1CCC2=Cc3c(cnn3-c3ccc(F)cc3)C[C@]2(C(=O)c2cc(F)ccn2)C1)S(=O)(=O)c1ncn(C)n1; 25 to 50%

Prompt line: Hello, I am looking for reported inhibition at 5 min with CYP2C8 (Homo sapiens, UniProt P10632) for CCN([C@H]1CCC2=Cc3c(cnn3-c3ccc(F)cc3)C[C@]2(C(=O)c2ncc(C(F)(F)F)s2)C1)S(=O)(=O)c1ncn(C)n1 . Could you help?
Response line: 25 to 50%

Prompt line: Hello, I am looking for reported inhibition at 5 min with CYP2C8 (Homo sapiens, UniProt P10632) for CCN([C@H]1CCC2=Cc3c(cnn3-c3ccc(F)cc3)C[C@]2(C(=O)c2cc(C(F)(F)F)ccn2)C1)S(=O)(=O)c1cn(C)nn1 . Could you help?
Response line: 25 to 50%

Prompt line: Hello, I am looking for reported inhibition at 5 min with CYP2C8 (Homo sapiens, UniProt P10632) for Cn1cc(S(=O)(=O)N(CC(F)(F)F)[C@H]2CCC3=Cc4c(cnn4-c4ccc(F)cc4)C[C@]3(C(=O)c3cc(F)ccn3)C2)cn1 . Could you help?
Response line: 50 to 75%

Prompt line: Hello, I am looking for reported inhibition at 5 min with CYP2C8 (Homo sapiens, UniProt P10632) for Cn1cnc(S(=O)(=O)N(CC(F)F)[C@H]2CCC3=Cc4c(cnn4-c4ccc(F)cc4)C[C@]3(C(=O)c3cc(C(F)(F)F)ccn3)C2)n1 . Could you help?
Response line: 25 to 50%

Prompt line: Hello, I am looking for reported inhibition at 5 min with CYP2C8 (Homo sapiens, UniProt P10632) for CN([C@H]1CCC2=Cc3c(cnn3-c3ccc(F)cc3)C[C@]2(C(=O)c2cc(C(F)(F)F)ccn2)C1)S(=O)(=O)C1CCOCC1 . Could you help?
Response line: 50 to 75%

* * *

- assay-target: GR (Homo sapiens)
- Construct: expressed in transfected cells; host or cells: CHO-K1
- assay-name: In Vitro GR Luciferase Reporter Assay (antagonist mode, CHO-K1-GR-MMTV-Luc reporter cells)
- Format: cell-based
- experimental-setup: antagonist mode, 10 nM Dexamethasone
Recorded IC50 by entry

Some entries whose results are on file:
Cn1ccc(S(=O)(=O)N(C2CC2)[C@H]2CCC3=Cc4c(cnn4-c4ccc(F)cc4)C[C@]3(C(=O)c3ccc(C4CC4)cn3)C2)n1; ≤ 100 nM
CO[C@]1(C)C[C@H](N([C@H]2CCC3=Cc4c(cnn4-c4ccc(F)cc4)C[C@]3(C(=O)c3cc(F)ccn3)C2)S(=O)(=O)c2ccn(C)n2)C1; ≤ 100 nM

Attention now shifts to the item below.
Prompt line: What value of IC50 has been reported for the following compound? Cn1ccc(S(=O)(=O)N(C2CC2)[C@H]2CCC3=Cc4c(cnn4-c4ccc(F)cc4)C[C@]3(C(=O)c3cc(C(F)(F)F)ccn3)C2)n1
Response line: ≤ 100 nM

* * *

Recorded inhibition at 5 min by entry
- assay-target: CYP2C8 (Homo sapiens, UniProt P10632)
- Construct: Pooled human microsomes were obtained from Sekisui XenoTech, KS; tissue Sekisui XenoTech, KS; host or cells: pooled human liver microsomes
- assay-name: CYP Inhibition Assay (CYP2C8, human liver microsomes, paclitaxel substrate)
- Type: in vitro ADME
- experimental-setup: pH 7.4; pooled human liver microsomes 0.1 mg/mL, probe substrate paclitaxel

Cn1ccc(S(=O)(=O)N(C2CCC2)[C@H]2CCC3=Cc4c(cnn4-c4ccc(F)cc4)C[C@]3(C(=O)c3cc(C(F)(F)F)ccn3)C2)n1; 25 to 50%

Attention now shifts to the item below.
Prompt line: What value of inhibition at 5 min has been reported for the following molecule? CC(C)N([C@H]1CCC2=Cc3c(cnn3-c3ccc(F)cc3)C[C@]2(C(=O)c2ncc(C(F)(F)F)s2)C1)S(=O)(=O)c1cnn(C)n1
Response line: 75 to 90%

* * *

- assay-target: GR (Homo sapiens)
- Construct: expressed in transfected cells; host or cells: CHO-K1
- assay-name: In Vitro GR Luciferase Reporter Assay (antagonist mode, CHO-K1-GR-MMTV-Luc reporter cells)
- Assay type: cell-based
- experimental-setup: antagonist mode, 10 nM Dexamethasone
pIC50: −log10 of the molar value.
measured-metric: pIC50

Prompt line: What value of pIC50 has been reported for the following compound? CC(C)N([C@H]1CCC2=Cc3c(cnn3-c3ccc(F)cc3)C[C@]2(C(=O)c2cc(Cl)ccn2)C1)S(=O)(=O)c1ccc(Cl)nc1 [Example 323]
Response line: ≥ 7.00

Prompt line: What value of pIC50 has been reported for the following compound? CC(C)CN([C@H]1CCC2=Cc3c(cnn3-c3ccc(F)cc3)C[C@]2(C(=O)c2ncc(C(F)(F)F)s2)C1)S(=O)(=O)c1ccn(C)n1 [Example 212]
Response line: ≥ 7.00

* * *

Recorded inhibition at 5 min by entry
- assay-target: CYP2C8 (Homo sapiens, UniProt P10632)
- Construct: Pooled human microsomes were obtained from Sekisui XenoTech, KS; tissue Sekisui XenoTech, KS; host or cells: pooled human liver microsomes
- assay-name: CYP Inhibition Assay (CYP2C8, human liver microsomes, paclitaxel substrate)
- Format: in vitro ADME
- experimental-setup: pH 7.4; pooled human liver microsomes 0.1 mg/mL, probe substrate paclitaxel

Some entries whose results are on file:
O=C(c1cc(F)ccn1)[C@]12Cc3cnn(-c4ccc(F)cc4)c3C=C1CC[C@H](N(CC1(O)CC1)S(=O)(=O)c1ccc(F)cc1)C2; 50 to 75%
Cn1ccc(S(=O)(=O)N(CC(F)F)[C@H]2CCC3=Cc4c(cnn4-c4ccc(F)cc4)C[C@]3(C(=O)c3ncc(C(F)(F)F)s3)C2)n1; 50 to 75%

Prompt line: What value of inhibition at 5 min has been reported for the following molecule? CC(C)N([C@H]1CCC2=Cc3c(cnn3-c3ccc(F)cc3)C[C@]2(C(=O)c2cc(F)ccn2)C1)S(=O)(=O)c1ccc(Cl)nc1
Response line: 25 to 50%

* * *

- assay-target: CYP2C8 (Homo sapiens, UniProt P10632)
- Construct: Pooled human microsomes were obtained from Sekisui XenoTech, KS; tissue Sekisui XenoTech, KS; host or cells: pooled human liver microsomes
- assay-name: CYP Inhibition Assay (CYP2C8, human liver microsomes, paclitaxel substrate)
- Type: in vitro ADME
- experimental-setup: pH 7.4; pooled human liver microsomes 0.1 mg/mL, probe substrate paclitaxel
Recorded inhibition at 5 min by entry

Some entries whose results are on file:
Cn1ncc(S(=O)(=O)N(C2CC2)[C@H]2CCC3=Cc4c(cnn4-c4ccc(F)cc4)C[C@]3(C(=O)c3ncc(C(F)(F)F)s3)C2)n1; 25 to 50%
CO[C@]1(C)C[C@H](N([C@H]2CCC3=Cc4c(cnn4-c4ccc(F)cc4)C[C@]3(C(=O)c3ncc(C(F)(F)F)s3)C2)S(=O)(=O)c2ccn(C)n2)C1; 25 to 50%
O=C(c1cc(C(F)(F)F)ccn1)[C@]12Cc3cnn(-c4ccc(F)cc4)c3C=C1CC[C@H](N(CC(F)F)S(=O)(=O)c1ccc(Cl)nc1)C2; 25 to 50%
CC(C)N([C@H]1CCC2=Cc3c(cnn3-c3ccc(F)cc3)C[C@]2(C(=O)c2cc(F)ccn2)C1)S(=O)(=O)c1ccn(C)n1; 75 to 90%
CC(C)N([C@H]1CCC2=Cc3c(cnn3-c3ccc(F)cc3)C[C@]2(C(=O)c2cc(C(F)(F)F)ccn2)C1)S(=O)(=O)c1cnn(C)c1; 50 to 75%

Prompt line: What value of inhibition at 5 min has been reported for the following compound? Cn1ccc(S(=O)(=O)N(C2CC2)[C@H]2CCC3=Cc4c(cnn4-c4ccc(F)cc4)C[C@]3(C(=O)c3cc(F)ccn3)C2)n1
Response line: 25 to 50%
